- tested target: Glucocorticoid receptor (Homo sapiens)
- assay procedure: Displacement of [3H]dexamethasone from human Glucocorticoid receptor (GR); Value ranges from 1428-1433 nM
outcome measure: pIC50
pIC50 (log units): -log10 of the concentration in mol/L.

Which pIC50 is reported for this compound? COc1cccc2c1-c1ccc(NS(C)(=O)=O)cc1C(c1ccccn1)O2 (stereo unspecified)
5.84

====

- tested target: Glucocorticoid receptor (Homo sapiens, UniProt P04150)
- Sequence (P04150 whole entry): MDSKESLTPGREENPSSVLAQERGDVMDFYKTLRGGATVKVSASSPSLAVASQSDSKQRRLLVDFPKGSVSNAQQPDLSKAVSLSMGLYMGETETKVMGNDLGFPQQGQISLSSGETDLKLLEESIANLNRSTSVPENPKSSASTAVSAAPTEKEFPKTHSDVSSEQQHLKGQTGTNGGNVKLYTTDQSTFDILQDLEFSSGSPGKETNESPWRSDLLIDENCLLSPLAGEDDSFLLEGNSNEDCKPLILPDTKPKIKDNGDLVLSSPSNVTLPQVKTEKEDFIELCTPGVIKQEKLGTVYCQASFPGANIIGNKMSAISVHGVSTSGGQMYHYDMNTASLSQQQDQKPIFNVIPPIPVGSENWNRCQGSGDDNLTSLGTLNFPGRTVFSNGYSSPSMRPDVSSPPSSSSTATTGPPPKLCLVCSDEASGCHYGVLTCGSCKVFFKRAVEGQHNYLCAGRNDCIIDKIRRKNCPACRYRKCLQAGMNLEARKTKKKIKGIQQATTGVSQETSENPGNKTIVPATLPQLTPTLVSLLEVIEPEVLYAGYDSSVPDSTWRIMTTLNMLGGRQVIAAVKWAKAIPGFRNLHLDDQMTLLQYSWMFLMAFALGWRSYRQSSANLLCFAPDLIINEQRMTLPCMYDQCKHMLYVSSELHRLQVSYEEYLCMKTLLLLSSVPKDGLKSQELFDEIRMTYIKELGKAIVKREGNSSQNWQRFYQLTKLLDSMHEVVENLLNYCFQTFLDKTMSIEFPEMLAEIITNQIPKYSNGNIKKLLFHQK
- assay procedure: Displacement of [3H]dexamethasone from human Glucocorticoid receptor (GR); Value ranges from 215-217 nM
outcome measure: pIC50
API: returns pIC50 as number; meaning -log10 of concentration in mol/L.

Param item = COc1cccc2c1-c1ccc(NS(C)(=O)=O)cc1C(c1cccc(O)c1)O2 (stereo unspecified) ; retrieve measured pIC50.
6.67
